Test system: U251 CNS
TEST NAME: NCI tumour cell line growth inhibition, 48 h
Listing: TGI of selected molecules
Please give a number only; it is taken to be in µM.

// solved cases for TGI follow
# SMILES STRUCTURE, MEASURED PARAMETER, UNIT ANNOTATION, OBSERVED RESULT
measured = [
    ("COc1cc2c(cc1C)NC(=O)/C2=C\\c1cccc(Oc2ccccc2)c1", "TGI", "µM", 24.9),
    ("COc1ccc(Nc2c3ccccc3nc3ccccc23)cc1", "TGI", "µM", 14.1),
    ("CSCCCNC(=O)c1csc(-c2csc(C(CNC(=O)OC(C)(C)C)CNC(=O)OC(C)(C)C)n2)n1", "TGI", "µM", 71.5),
]

Entry CN(CC(=O)N(Cc1ccc(C2CCCCC2)cc1)c1ccc(C(=O)O)c(O)c1)S(=O)(=O)c1c(F)c(F)c(F)c(F)c1F : TGI on U251 CNS = 3.82
